Molecular target: recombinant eIF4E (Homo sapiens (Human))
Sequence (P06730 whole entry): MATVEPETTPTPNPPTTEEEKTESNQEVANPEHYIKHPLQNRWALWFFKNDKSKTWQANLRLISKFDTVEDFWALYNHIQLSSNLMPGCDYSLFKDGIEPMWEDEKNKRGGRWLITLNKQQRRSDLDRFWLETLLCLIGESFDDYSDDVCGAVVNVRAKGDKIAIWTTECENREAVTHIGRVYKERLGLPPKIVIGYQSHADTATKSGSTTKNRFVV
Experiment: Fluorescence polarization competition assay for eIF4E binding potency
Settings: inhibition of eIF4E/EDA-m7GDP-ATTO-550 binding; calculated IC50 values, Table 4B; read-out: IC50
measured_endpoint: pIC50
# pIC50: negative log10 of molar concentration; output just the value

Quick one: pIC50 for Cc1cc(-c2cc(Cl)ccc2OCCn2c(C)nc3cc(C)c(CN(C)C)c(C#N)c3c2=O)c2scc(C(=O)O)c2n1 [compound 1379] ? 7.74

Now consider Cc1nc2cnc(N(C)C3CCN(CC(F)(F)F)CC3)c(C#N)c2c(=O)n1CC#Cc1ccc(Cl)cc1-c1ccnc2c(C(=O)NS(=O)(=O)c3cscn3)csc12 [compound 1675] and answer again. 8.39

Try this compound next: COCC1(N2CCN(c3ncc4nc(C)n(CC#Cc5ccc(Cl)cc5-c5ccnc6c(C(=O)O)csc56)c(=O)c4c3C#N)CC2)CC1 [compound 1465] 7.63

What do you get for Cc1nc2cnc(N3CC4(CC4)N(C)C4(CC4)C3)c(C#N)c2c(=O)n1CCOc1ccc(Cl)cc1-c1ccnc2c(C(=O)O)csc12 [compound 1363] ? 7.37

Repeat with Cc1nc2cnc(N(C)C3CCN(C4CC(F)(F)C4)CC3)c(C#N)c2c(=O)n1CC#Cc1ccc(Cl)cc1-c1ccnc2c(C(=O)NS(=O)(=O)c3ccncc3)csc12 [compound 1829] 8.20

How about N#Cc1cc2c(=O)n(CCOc3ccc(Cl)cc3-c3cccc(C(=O)O)c3)c(C(F)F)nc2cn1 [compound 1996] ? 6.72

Another compound to look at: Cc1nc2ccc(CN(C)C)c(C#N)c2c(=O)n1CCOc1ccc(Cl)cc1-c1ccnc2c(C(=O)O)csc12 [compound 1936] 7.43

Now the same for Cc1nc2cnc(N3CCN(C4CC(F)(F)C4)CC3)c(C#N)c2c(=O)n1CC#Cc1ccc(Cl)cc1-c1ccnc2c(C(=O)O)csc12 [compound 1355] 7.61

Would you kindly repeat that for Cc1nc2cnc(N(C)C3CCN(CC(F)(F)F)CC3)c(C#N)c2c(=O)n1CC#Cc1ccc(Cl)cc1-c1ccnc2c(C(=O)NS(=O)(=O)C(C)C)csc12 [compound 1538] ? 7.84

Please give the result for Cc1nc2cnc(N3CC4(CCN4C4CC4)C3)c(C#N)c2c(=O)n1CC#Cc1ccc(Cl)cc1-c1ccnc2c(C(=O)O)csc12 [compound 1525] too. 7.82

Same thing, different compound: Cc1nc2cc(S(C)(=O)=O)c(N3CCN(C)CC3)c(C#N)c2c(=O)n1CCOc1ccc(Cl)cc1-c1ccnc2c(C(=O)O)csc12 [compound 1296] 7.57

Field entry: CCOP(=O)(OCC)c1csc2c(-c3cc(Cl)ccc3OCCn3c(C)nc4cnc(N(C)C5CCN(CC(F)F)CC5)c(C#N)c4c3=O)ccnc12 [compound 1616] 7.94
